# EXPERIMENTAL SYSTEM: ECE (Cavia porcellus)
# Construct: tissue Keystone Biologicals, Cleveland, Ohio; host or cells: frozen guinea pig lungs; lubrol PX-treated lung membranes
# Sequence (P97739 1-754): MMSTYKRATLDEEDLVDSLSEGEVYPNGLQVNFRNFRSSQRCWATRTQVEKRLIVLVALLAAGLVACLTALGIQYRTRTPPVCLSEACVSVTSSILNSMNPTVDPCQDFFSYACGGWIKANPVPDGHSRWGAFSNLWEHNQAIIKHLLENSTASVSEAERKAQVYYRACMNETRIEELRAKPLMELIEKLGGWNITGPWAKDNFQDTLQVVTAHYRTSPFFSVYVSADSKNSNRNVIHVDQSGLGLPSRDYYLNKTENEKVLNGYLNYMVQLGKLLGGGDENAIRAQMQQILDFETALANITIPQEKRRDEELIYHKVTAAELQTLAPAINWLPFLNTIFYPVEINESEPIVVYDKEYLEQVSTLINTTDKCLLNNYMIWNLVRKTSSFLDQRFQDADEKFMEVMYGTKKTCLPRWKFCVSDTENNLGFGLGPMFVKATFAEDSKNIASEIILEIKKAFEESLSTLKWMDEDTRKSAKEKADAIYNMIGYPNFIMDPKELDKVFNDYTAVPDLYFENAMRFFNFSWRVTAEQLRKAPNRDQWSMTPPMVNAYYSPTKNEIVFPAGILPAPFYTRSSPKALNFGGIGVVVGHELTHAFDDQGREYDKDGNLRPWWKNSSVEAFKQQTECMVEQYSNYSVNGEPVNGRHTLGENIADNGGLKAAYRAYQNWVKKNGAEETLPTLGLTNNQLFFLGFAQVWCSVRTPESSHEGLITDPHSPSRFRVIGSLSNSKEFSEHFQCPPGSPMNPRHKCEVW
# ASSAY PROTOCOL: In vitro ECE assay (inhibition of [125I]BET-1 to [125I]ET-1 conversion, lubrol-treated guinea pig lung membrane)
# Assay type: biochemical
# CONDITION DESCRIPTION: L-GPLGM, 2 h preincubation at 4° C., 500 pM [125I]BET-1, table of examples, read-out: ECE IC50
pIC50: −log10 of the molar value.
QUANTITY KIND: pIC50

CS(=O)(=O)N[C@@H](CCCCN)C(=O)N[C@@H](Cc1ccccc1)P(=O)(O)CC1(C(=O)N[C@@H](Cc2ccc(O)cc2)C(=O)O)CCCC1 [Example 5C] :: 7.00
CS(=O)(=O)N[C@@H](CCCCN)C(=O)NC(Cc1ccc(O)cc1)P(=O)(O)CC1(C(=O)N[C@@H](Cc2c[nH]c3ccccc23)C(=O)O)CCCC1 (some centres unmarked) [Example 5B] :: 7.00
CC(C)CC(NC(=O)[C@H](CCCCNC(=O)OCc1ccccc1)NS(C)(=O)=O)P(=O)(O)CC1(C(=O)N[C@@H](Cc2c[nH]c3ccccc23)C(=O)O)CCCC1 (some centres unmarked) [Example 3D] :: 7.26
CC(C)CC(CP(=O)(O)C(CCCCO)NC(=O)[C@H](CC(C)C)NS(C)(=O)=O)C(=O)N[C@@H](Cc1c[nH]c2ccccc12)C(=O)O (some centres unmarked) [Example 10D] :: 6.82

1 = COc1ccc(CC(NC(=O)[C@H](CCCCN)NS(C)(=O)=O)P(=O)(O)CC2(C(=O)N[C@@H](Cc3c[nH]c4ccccc34)C(=O)O)CCCC2)cc1 (some centres unmarked) [Example 5A]
2 = O=C(NC(Cc1ccc(OCc2ccccc2)cc1)P(=O)(O)CC1(C(=O)N[C@@H](Cc2c[nH]c3ccccc23)C(=O)O)CCCC1)OCc1ccccc1 (some centres unmarked) [Example 1B]
3 = O=C(N[C@@H](Cc1ccccc1)P(=O)(O)CC1(C(=O)N[C@@H](Cc2c[nH]c3ccccc23)C(=O)O)CCCC1)OCc1ccccc1 [Example 1]
[ask] Place the items in sequence of falling pIC50. Write the labels in rank order as requested.
[reply] 1, 3, 2
(1: 7.40, 3: 6.72, 2: 6.40)

All values here come from patent US5476847A.
